- Test system: CAKI-1 renal
- Protocol: NCI tumour cell line growth inhibition, 48 h
Experimental Readout: TGI

- Compound: "CC(=O)OCC1OC(n2c(-c3ccc(C)cc3)cc(-c3ccccc3)c(C#N)c2=O)C(OC(C)=O)C(OC(C)=O)C1OC(C)=O (centres undefined)"
  Measured Target: "CAKI-1 renal"
  TGI: "> 100 µM"

Request: Fill blank: measured TGI of the compound "N#Cc1cccc(/C=N/N=C(\N)NO)c1" is ____.
Response: > 100 µM

Request: Fill blank: measured TGI of the compound O=C1Oc2cc(O)cc(/C=C/c3ccc(O)cc3)c2[C@@]12c1c(O)cc(O)cc1OC2c1cccc(O)c1 (some centres undefined) is ____.
Response: > 100 µM

Request: Fill blank: measured TGI of the compound "COc1ccc(SCc2cc(OCc3ccccc3)c(OCc3ccccc3)c(OCc3ccccc3)c2)cc1" is ____.
Response: 3.02 µM

Request: Fill blank: measured TGI of the compound "Cc1ccc(Cl)cc1NC(=O)c1sc2nc3c(cc2c1N)C(=O)CCC3" is ____.
Response: > 100 µM

Request: Fill blank: measured TGI of the compound "Nc1onc2c1Cc1c(noc1N)-c1ccccc1-2" is ____.
Response: > 100 µM

====

Examples of molecules with documented TGI follow.
- Test system: SF-268 CNS
- Protocol: NCI tumour cell line growth inhibition, 48 h
Field format: number, assumed µM, no unit text.

Request: Fill blank: measured TGI of the molecule "Cc1ccc(O)c(NC(=O)c2ccc(CNc3ccnc(C(F)(F)F)c3)cc2)c1" is ____.
Response: 38

Request: Fill blank: measured TGI of the molecule "O=[N+]([O-])c1ccc(N/N=C/c2ccc(OCCCCCCCCCCCO)cc2)c([N+](=O)[O-])c1" is ____.
Response: 7.62

Request: Fill blank: measured TGI of the molecule "O=C1C(Cl)=C(Nc2ccc(S(=O)(=O)Nc3ccccn3)cc2)C(=O)c2ccccc21" is ____.
Response: 29.3

Request: Fill blank: measured TGI of the molecule "CCOC(=O)c1c2c(n3ccccc13)C(=O)c1ncccc1C2=O" is ____.
Response: 23.3

====

Examples of molecules with documented TGI follow.
- System: ACHN renal
- Protocol: NCI tumour cell line growth inhibition, 48 h

- Molecule: "CC(C(O)c1ccccc1)C(O)(C(F)(F)F)C(F)(F)F (centres undefined)"
  TGI: "> 100 µM"
- Molecule: "CC(=O)c1cc2ccccc2oc1=O"
  TGI: "> 100 µM"
- Molecule: "O=C1C(=Cc2c(O)cc(O)cc2O)C(=O)c2ccccc21"
  TGI: "> 57.6 µM"
- Molecule: "NC(=S)N/N=C\\c1nccc2ccccc12"
  TGI: "0.317 µM"

Request: Fill blank: measured TGI of the molecule "COc1ccc(-c2ccc(-c3ccc(C(=N)N)o3)o2)cc1" is ____.
Response: 4.2 µM

Request: Fill blank: measured TGI of the molecule "COc1cccc(/C=N/C(/N=C/c2cccc(OC)c2O)c2cccc(OC)c2O)c1O" is ____.
Response: 58.6 µM

====

- Test system: SK-MEL-2 melanoma
- Protocol: NCI tumour cell line growth inhibition, 48 h
Experimental Readout: log10 TGI (log10 of the value in µM)
Could you please treat all values as log10 of TGI in µM?

Answered cases to consult:
- Structure: "C#CCOc1cccc(Nc2ncnc3cc(NC(=O)CCl)ccc23)c1"
  Measured Target: "SK-MEL-2 melanoma"
  log10 TGI: 1.44
- Structure: "Cc1ncc(C(=O)Nc2ccc(CN3CCN(C)CC3)c(C(F)(F)F)c2)cc1C#Cc1cnc(N)cc1C#N"
  Measured Target: "SK-MEL-2 melanoma"
  log10 TGI: 0.01
- Structure: "O=c1cccccc1[O-].O=c1cccccc1[O-].O=c1cccccc1[O-].[La+3]"
  Measured Target: "SK-MEL-2 melanoma"
  log10 TGI: 1.68
- Structure: "COc1cccc(/C=N/C(/N=C/c2cccc(OC)c2O)c2cccc(OC)c2O)c1O"
  Measured Target: "SK-MEL-2 melanoma"
  log10 TGI: 1.64
- Structure: "COC(=O)Nc1nc2ccc(Br)cc2[nH]1"
  Measured Target: "SK-MEL-2 melanoma"
  log10 TGI: 1.80

Request: Fill blank: measured log10 TGI of the compound "CCN(CC)c1ccc(N=Nc2ccc(-c3nc4ccc[n+](C)c4o3)cc2)cc1" is ____.
Response: 1.41

Request: Fill blank: measured log10 TGI of the compound "N/C(=N\N=C\c1ccc2c(c1)OCCO2)NO" is ____.
Response: 1.85

Request: Fill blank: measured log10 TGI of the compound "CC(C)/C(Cl)=N\OC(=O)Nc1cccc(Cl)c1" is ____.
Response: 1.48
